Where do the numbers come from? From paper PMC2756588.

Target: Bem1-2, P29366
Sequence (P29366 139-227): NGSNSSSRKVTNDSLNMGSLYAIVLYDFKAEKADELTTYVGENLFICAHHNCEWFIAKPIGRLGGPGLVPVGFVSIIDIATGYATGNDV
Test: SPOT array
Conditions: median of control spots 4347
Give SPOT intensity for every item shown.
Numbers only.

- Binder: "AGKRRLPLVRFKASD"
  SPOT intensity: 3

Provide SPOT intensity values for the following items, in order.
1. NRLRKRLNLPSEISI
2. IFLRISINFPLNYPN
3. FSRRQSMDIPSKNRN

1. 3
2. 3
3. 0

Provide SPOT intensity values for the following items, in order.
1. GERSRPLVISILSSA
2. ALFRLSFFFPLDPAY
3. RPVPPPPPMRTTTEG
4. AIPPPVPNRPGGTTN

1: 0; 2: 27; 3: 6; 4: 1

Provide SPOT intensity values for the following items, in order.
1. DDEDVPPQLPTRTKS
2. RRSKSLPITPKSIFN

1: 3; 2: 0
